assay: NCI Yeast Anticancer Drug Screen. Data for the mec2-1 strain (AID 157); conditions: S. cerevisiae mec2-1 strain, at 50.0 µM, hits give high values
The panel holds about 79,000 compounds, 15% with a hit somewhere; the sample as a whole holds those more often.
Quick list: growth inhibition per entry.
Metric Name: growth inhibition (%)

Compound: O=NNc1ccc(S(=O)(=O)c2ccccc2)cn1
Metric Name: growth inhibition
Quantitative Result: 13.9

Compound: Clc1ccc(C(n2cc(Br)cn2)n2cc(Br)cn2)cc1
Metric Name: growth inhibition
Quantitative Result: 90.8

Compound: O=C1C(=O)c2ccccc2C(O)=C1Cc1ccccc1
Metric Name: growth inhibition
Quantitative Result: 13.8

Compound: CN(C)C(=O)Nc1cccc(OC(=O)NC2CC2)c1
Metric Name: growth inhibition
Quantitative Result: 16.9

Compound: CCc1ccc(C(C)=O)cc1
Metric Name: growth inhibition
Quantitative Result: 41.5

Compound: N#C/C(=C\c1cc(Br)c(O)c(Br)c1)c1ccccn1
Metric Name: growth inhibition
Quantitative Result: 50.1

Compound: Nc1nc(N)c2ccccc2n1
Metric Name: growth inhibition
Quantitative Result: 13.8

Compound: O=c1[nH][nH]c(=O)c2[nH]cnc12
Metric Name: growth inhibition
Quantitative Result: -8.2

Compound: COc1ccc2c(c1)CC1(CC2)CCN(CCCN(C)C)CC1
Metric Name: growth inhibition
Quantitative Result: -7.85

Compound: CN1CCN(CCCBr)CC1
Metric Name: growth inhibition
Quantitative Result: -5.3

Compound: O=C1CC2CCCC23CC2(CCN13)OCCO2 (centres undefined)
Metric Name: growth inhibition
Quantitative Result: 0.7

Compound: Nc1ccc(Cl)cc1[N+](=O)[O-]
Metric Name: growth inhibition
Quantitative Result: -3.75

Compound: CCOC(=O)C1C(C)=CC(=O)CC1C(C)C (centres undefined)
Metric Name: growth inhibition
Quantitative Result: -8.5

Compound: C=C(Cl)/C(=C\Cl)CCC(Cl)C(C)C (centres undefined)
Metric Name: growth inhibition
Quantitative Result: 15.2

---

assay: NCI Yeast Anticancer Drug Screen. Data for the sgs1 mgt1 strain (AID 161);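 note: 0% = growth of cultures given vehicle only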; settings: S. cerevisiae sgs1 mgt1 strain, at 50.0 µM, hits give high values
The panel holds about 79,000 compounds, 15% with a hit somewhere; the sample as a whole holds those more often.
Metric Name: growth inhibition (%)

Compound: O=C(c1cccc(C(=O)N(c2ccccc2)c2ccccc2)n1)N(c1ccccc1)c1ccccc1
Quantitative Result: -32.1
//
Compound: COC(=O)c1ccc(-c2nc(C#N)c(N)o2)cc1
Quantitative Result: -11.1
//
Compound: Nc1[nH]c(=O)ncc1-c1cccc(Cl)c1
Quantitative Result: 11.6
//
Compound: COc1ccc(CC(C)C(C)Cc2ccc(OC)c(OC)c2)cc1OC (configuration not stated)
Quantitative Result: 1.6
//
Compound: CCOC(=O)/C=C\SCCC(=O)O
Quantitative Result: 15.8
//
Compound: O=C(CSc1nc2ccccc2c2ccccc12)c1ccccc1
Quantitative Result: -4.4
//
Compound: CC(=O)C(C)CCOC1(C)OCCC1C (configuration not stated)
Quantitative Result: -13.1
//
Compound: Cc1cc(=O)c2c(=O)n(-c3ccccc3)[nH]c2[nH]1
Quantitative Result: -11.2
//
Compound: CCOC(=O)C(C(=O)OC(c1ccccc1)c1ccccc1)(C(c1ccccc1)c1ccccc1)C(c1ccccc1)c1ccccc1
Quantitative Result: 1.65
//
Compound: CCCCCCCCNC(=O)CBr
Quantitative Result: 22.8
//
Compound: C[N+]1(C)CCC2=CC(=O)CC(c3ccccc3)C2C1 (configuration not stated)
Quantitative Result: 12.6
//
Compound: COC1CCC2C(C1)C(C1CCCCC1)C1CCCCC1C2C1CCCCC1 (configuration not stated)
Quantitative Result: -14.6
